Target: T1, human NMI (N-myc Interacting protein) (human, UniProt Q13287 1-307, limits assumed)
T1 construct: Immunogen and ELISA coating antigen; also called hNMI; antigen 1
T1 sequence (looked up): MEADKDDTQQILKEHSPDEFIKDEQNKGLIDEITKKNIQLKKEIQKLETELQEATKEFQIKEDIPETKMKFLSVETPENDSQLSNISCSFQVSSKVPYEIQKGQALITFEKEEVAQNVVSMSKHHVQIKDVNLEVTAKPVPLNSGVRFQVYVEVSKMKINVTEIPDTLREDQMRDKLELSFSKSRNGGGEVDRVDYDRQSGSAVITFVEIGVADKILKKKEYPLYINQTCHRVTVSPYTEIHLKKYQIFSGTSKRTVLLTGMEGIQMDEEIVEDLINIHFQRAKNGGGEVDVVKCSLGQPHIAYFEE
Assay: I-ELISA, hNMI coated 1 ug/mL; antibody 1250 ng/mL
# OD450 per entry

| BINDER | OD450 [OD450] |
| --- | --- |
| 98G10 (antibody, V domains shown, Rabbit monoclonal antibody; also called 98G10-1; 98G10-1-biotin (biotin-labelled form)) VH: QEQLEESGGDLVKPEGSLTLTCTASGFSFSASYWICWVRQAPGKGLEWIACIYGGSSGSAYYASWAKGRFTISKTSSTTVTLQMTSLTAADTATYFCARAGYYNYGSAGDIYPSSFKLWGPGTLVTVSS VL: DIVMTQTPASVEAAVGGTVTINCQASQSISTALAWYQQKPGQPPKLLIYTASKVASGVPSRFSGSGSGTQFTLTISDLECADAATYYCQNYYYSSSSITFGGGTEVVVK | 2.15 |
| B-8 (antibody, V domains shown, Rabbit monoclonal antibody; also called B8-1; B-8-biotin (biotin-labelled form)) VH: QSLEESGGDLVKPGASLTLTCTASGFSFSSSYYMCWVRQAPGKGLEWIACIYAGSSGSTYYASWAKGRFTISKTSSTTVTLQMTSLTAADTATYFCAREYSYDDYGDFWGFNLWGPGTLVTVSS VL: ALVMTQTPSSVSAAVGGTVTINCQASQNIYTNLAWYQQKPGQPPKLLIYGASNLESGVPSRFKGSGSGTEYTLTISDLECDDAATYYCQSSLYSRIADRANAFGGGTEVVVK | 1.68 |
| 94C4 (antibody, V domains shown, Rabbit monoclonal antibody; also called 94C4-1; 94C4-1-biotin (biotin-labelled form)) VH: QSLEESGGGLVQPEGSLTLTCKASGFDFSSNAMCWVRQAPGKGLEWIACISSASSGSSGSTYYASWAKGRFTISKTSSTTVTLQMTSLTAADMATYFCARDGYDLWGPGTLVTVSS VL: QVLTQTPSSVSAAVGGTVTISCQSSPSVYNNYLSWFQQKPGQSPKLLIYRVSTLASGVPSRFSGSGSGTQFTLTISGVQCDDAATYYCAGGYDSASDTYVFGGGTEVVVK | 2.19 |
| 240B10-1 (antibody, V domains shown, Rabbit monoclonal antibody; also called 240B10-1-biotin (biotin-labelled form)) VH: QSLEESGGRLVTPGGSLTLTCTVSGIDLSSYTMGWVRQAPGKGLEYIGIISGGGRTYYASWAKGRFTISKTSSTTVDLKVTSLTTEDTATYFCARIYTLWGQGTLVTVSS VL: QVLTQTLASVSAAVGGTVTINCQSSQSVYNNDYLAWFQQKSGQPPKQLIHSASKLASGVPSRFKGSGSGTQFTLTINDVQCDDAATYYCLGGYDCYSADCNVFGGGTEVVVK | 2.13 |
| 39B4 (antibody, V domains shown, Rabbit monoclonal antibody; also called 39B4-1; 39B4-1-biotin (biotin-labelled form)) VH: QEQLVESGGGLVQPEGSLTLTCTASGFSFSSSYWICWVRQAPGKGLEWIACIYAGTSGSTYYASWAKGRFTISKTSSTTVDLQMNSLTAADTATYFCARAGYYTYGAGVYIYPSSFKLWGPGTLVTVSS VL: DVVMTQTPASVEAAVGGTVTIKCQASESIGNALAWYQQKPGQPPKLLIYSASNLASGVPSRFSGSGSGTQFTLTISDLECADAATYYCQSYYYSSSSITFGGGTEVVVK | 2.13 |
